System: 845751-090-R-J2-PDC tumor spheroid viability;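 note: spheroids exposed to compounds for 7 days before readout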
PROCEDURE DETAILS: Anticancer human tumor 845751-090-R-J2-PDC patient-derived head and neck squamous carcinoma cell line growth inhibition [IpAb]
ASSAY CONTEXT: curve of first compound; second compound 0.316 µM; spheroids with HUVEC and MSC
pIC50: −log10 of the molar value.
Here the recorded pIC50 is given for each entry.

>  <COMPOUND>
CC(C)(C)c1cnc(CSc2cnc(NC(=O)C3CCNCC3)s2)o1 + CCN1CCN(Cc2ccc(Nc3ncc(F)c(-c4cc(F)c5nc(C)n(C(C)C)c5c4)n3)nc2)CC1

>  <TESTED SYSTEM>
845751-090-R-J2-PDC tumor spheroid viability;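 note: spheroids exposed to compounds for 7 days before readout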

>  <RESULT MODIFIER>
=

>  <pIC50>
7.44

$$$$
>  <COMPOUND>
C=CC(=O)N1CCN(c2nc(=O)n(-c3c(C)ccnc3C(C)C)c3nc(-c4c(O)cccc4F)c(F)cc23)C(C)C1 (stereo not given) + CCN1CCN(Cc2ccc(Nc3ncc(F)c(-c4cc(F)c5nc(C)n(C(C)C)c5c4)n3)nc2)CC1

>  <TESTED SYSTEM>
845751-090-R-J2-PDC tumor spheroid viability;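 note: spheroids exposed to compounds for 7 days before readout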

>  <RESULT MODIFIER>
=

>  <pIC50>
5.73

$$$$
>  <COMPOUND>
Cn1ncc(Cl)c1-c1cc(C(=O)NC(CN)Cc2cccc(F)c2)sc1Cl (stereo not given) + CC(C)NCC(C(=O)N1CCN(c2ncnc3c2C(C)CC3O)CC1)c1ccc(Cl)cc1

>  <TESTED SYSTEM>
845751-090-R-J2-PDC tumor spheroid viability;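 note: spheroids exposed to compounds for 7 days before readout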

>  <RESULT MODIFIER>
>

>  <pIC50>
7.50

$$$$
>  <COMPOUND>
Cn1nccc1Nc1nccc(-c2ccn(C(CO)c3ccc(Cl)c(F)c3)c(=O)c2)n1 (stereo not given) + CCN1CCN(Cc2ccc(Nc3ncc(F)c(-c4cc(F)c5nc(C)n(C(C)C)c5c4)n3)nc2)CC1

>  <TESTED SYSTEM>
845751-090-R-J2-PDC tumor spheroid viability;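 note: spheroids exposed to compounds for 7 days before readout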

>  <RESULT MODIFIER>
<

>  <pIC50>
5.00

$$$$
>  <COMPOUND>
CC1(C)CCC(CN2CCN(c3ccc(C(=O)NS(=O)(=O)c4ccc(NCC5CCOCC5)c([N+](=O)[O-])c4)c(Oc4cnc5[nH]ccc5c4)c3)CC2)=C(c2ccc(Cl)cc2)C1 + CCN1CCN(Cc2ccc(Nc3ncc(F)c(-c4cc(F)c5nc(C)n(C(C)C)c5c4)n3)nc2)CC1

>  <TESTED SYSTEM>
845751-090-R-J2-PDC tumor spheroid viability;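 note: spheroids exposed to compounds for 7 days before readout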

>  <RESULT MODIFIER>
=

>  <pIC50>
5.19

$$$$
>  <COMPOUND>
CC(=O)c1c(C)c2cnc(Nc3ccc(N4CCNCC4)cn3)nc2n(C2CCCC2)c1=O + CCN1CCN(Cc2ccc(Nc3ncc(F)c(-c4cc(F)c5nc(C)n(C(C)C)c5c4)n3)nc2)CC1

>  <TESTED SYSTEM>
845751-090-R-J2-PDC tumor spheroid viability;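 note: spheroids exposed to compounds for 7 days before readout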

>  <RESULT MODIFIER>
<

>  <pIC50>
6.52

$$$$
>  <COMPOUND>
C=CC(=O)N1CCN(c2nc(=O)n(-c3c(C)ccnc3C(C)C)c3nc(-c4c(O)cccc4F)c(F)cc23)C(C)C1 (stereo not given) + CC(C)NCC(C(=O)N1CCN(c2ncnc3c2C(C)CC3O)CC1)c1ccc(Cl)cc1

>  <TESTED SYSTEM>
845751-090-R-J2-PDC tumor spheroid viability;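 note: spheroids exposed to compounds for 7 days before readout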

>  <RESULT MODIFIER>
>

>  <pIC50>
7.50

$$$$
>  <COMPOUND>
Cn1cnc2c(F)c(Nc3ccc(Br)cc3Cl)c(C(=O)NOCCO)cc21 + CC(C)NCC(C(=O)N1CCN(c2ncnc3c2C(C)CC3O)CC1)c1ccc(Cl)cc1

>  <TESTED SYSTEM>
845751-090-R-J2-PDC tumor spheroid viability;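 note: spheroids exposed to compounds for 7 days before readout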

>  <RESULT MODIFIER>
>

>  <pIC50>
8.02

$$$$
>  <COMPOUND>
Cn1ncc(Cl)c1-c1cc(C(=O)NC(CN)Cc2cccc(F)c2)sc1Cl (stereo not given) + CCN1CCN(Cc2ccc(Nc3ncc(F)c(-c4cc(F)c5nc(C)n(C(C)C)c5c4)n3)nc2)CC1

>  <TESTED SYSTEM>
845751-090-R-J2-PDC tumor spheroid viability;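 note: spheroids exposed to compounds for 7 days before readout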

>  <RESULT MODIFIER>
=

>  <pIC50>
6.77

$$$$
>  <COMPOUND>
COc1c(OCCCN2CCOCC2)ccc2c3n(c(=NC(=O)c4cnc(N)nc4)nc12)CCN3 + CC(C)NCC(C(=O)N1CCN(c2ncnc3c2C(C)CC3O)CC1)c1ccc(Cl)cc1

>  <TESTED SYSTEM>
845751-090-R-J2-PDC tumor spheroid viability;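 note: spheroids exposed to compounds for 7 days before readout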

>  <RESULT MODIFIER>
>

>  <pIC50>
8.50

$$$$
